Could you please report measured Ki for the items listed next?

Here Cl.NCCCC[C@H](NC(=O)c1ccc(F)c(F)c1)C(=O)c1noc(Cc2ccc(OCCc3ccc(Cl)c(Cl)c3)cc2)n1 was tested on UniProtKB P00749, and its Ki came to > 150 µM

Here CCOC(=O)N[C@@H](CCCCN)C(=O)c1noc(Cc2ccc(OCCc3ccccc3)cc2)n1 was tested on UniProtKB P00749, and its Ki came to > 150 µM

---

# assayText: Oral bioavailability in rat at 5 mg/kg, po
# Assay type: ADME, organism-based
# conditionDescription: in vivo
observable: bioavailability (%)
Give the number; % is assumed, so skip it.

compound Cl.NCCCC[C@H](NC(=O)c1ccc(F)cc1)C(=O)c1noc(Cc2ccc(OCCc3ccc(Cl)c(Cl)c3)cc2)n1 , bioavailability observed: 9
